system: SN12C; test: NCI tumour cell line growth inhibition, 48 h
Active and inactive are the calls of the source. Cut-off read from the data, not from the text of the source: active = GI50 up to about 1.1 µM and inactive = higher.
Classes used: YES = active, NO = inactive

- COMPOUND: "CCOC(=O)C(Cc1ccc(N(CCCl)CCCl)cc1)NC(=O)C(Cc1ccccc1)NC(C)=O (stereo not given)"
  GROUP_LABEL: "YES"
- COMPOUND: "C/C(C=O)=C1\\C(O)C[C@]1(C)C1CC(C)(C)CC1O (stereo not given in full)"
  GROUP_LABEL: "NO"
- COMPOUND: "Cn1c(=O)c2sc3c4sc5c(=O)n(C)c6ccccc6c5c4sc3c2c2ccccc21"
  GROUP_LABEL: "NO"
- COMPOUND: "COc1c(Br)cc(/C=C(\\C#N)c2ccccn2)cc1Br"
  GROUP_LABEL: "NO"
- COMPOUND: "COc1ccc(OC)c(NC(=O)C(=O)CC(=O)c2sc(-n3nc(-c4ccccc4)cc3-c3ccccc3)nc2C)c1"
  GROUP_LABEL: "NO"
